target: IL-17A : IL-17RA binding (Homo sapiens, UniProt Q16552, K93Q); construct: Name: IL-17A-Flag; assay: IL-17A(FLAG-tagged):IL-17RA(His-tagged) binding disruption Eu-HTRF assay, Protocol 1; conditions: FLAG-IL-17A 2.5 nM at 2x final concentration; average if tested more than once
Sequence (Q16552 with tags, fused parts or gaps K93Q): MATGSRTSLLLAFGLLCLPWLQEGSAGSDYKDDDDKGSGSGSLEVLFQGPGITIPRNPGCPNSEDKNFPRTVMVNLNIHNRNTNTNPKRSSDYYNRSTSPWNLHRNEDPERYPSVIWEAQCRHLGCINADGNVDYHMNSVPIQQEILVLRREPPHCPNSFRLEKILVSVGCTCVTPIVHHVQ
pIC50: −log10 of the molar value.
assayMetric: pIC50

{"compound": "C[C@@H](NC(=O)CCC(F)(F)F)c1ccc2[nH]c([C@@H](NC(=O)c3cn(CCC(F)(F)F)cn3)C3CCC(F)(F)CC3)nc2c1 [Example 226]", "measured": "< 7.00"}
{"compound": "CC(C)n1nccc1C(=O)N[C@@H](COC(C)C(F)(F)F)c1nc2ccc([C@H](NC(=O)CC3CC(F)(F)C3)C3CC3)cc2[nH]1 (relative stereo) [Example 156]", "measured": "7.00 to 7.30"}
{"compound": "C[C@@H](NC(=O)CCC(F)(F)F)c1ccc2[nH]c([C@@H](NC(=O)c3cnn(CCOC(F)F)n3)C3CCC(F)(F)CC3)nc2c1 [Example 33]", "measured": "< 7.00"}

====

biological target: IL-17A : IL-17RA binding (Homo sapiens, UniProt Q16552, K93Q); construct: Name: IL-17A-Flag; assay: IL-17A(FLAG-tagged):IL-17RA(His-tagged) binding disruption Eu-HTRF assay, Protocol 1; conditions: FLAG-IL-17A 2.5 nM at 2x final concentration; average if tested more than once
Listed compounds paired with reported IC50
assayMetric: IC50

{"compound": "C[C@@H](NC(=O)CCC(F)(F)F)c1ccc2nc([C@@H](NC(=O)c3cnnn3CCC(F)F)C3CCC(F)(F)CC3)[nH]c2c1", "targetUnderTest": "IL-17A : IL-17RA binding (Homo sapiens, UniProt Q16552, K93Q)", "measured": "> 100 nM"}
{"compound": "CC(C)n1nccc1C(=O)N[C@@H](C[C@H]1CCC(F)(F)C1)c1nc2ccc([C@H](NC(=O)CC3CC(F)(F)C3)C3CC3)cc2[nH]1", "targetUnderTest": "IL-17A : IL-17RA binding (Homo sapiens, UniProt Q16552, K93Q)", "measured": "> 100 nM"}
{"compound": "C[C@@H](NC(=O)CCC(F)(F)F)c1ccc2[nH]c([C@@H](NC(=O)[C@@H]3C[C@@H]3C#N)C3CCC(F)(F)CC3)nc2c1", "targetUnderTest": "IL-17A : IL-17RA binding (Homo sapiens, UniProt Q16552, K93Q)", "measured": "> 100 nM"}
{"compound": "CC(C)(OCC(NC(=O)c1nonc1C1CC1)c1nc2ccc([C@H](NC(=O)CC3CC(F)(F)C3)C3CC3)cc2[nH]1)C(F)(F)F (single isomer, unassigned)", "targetUnderTest": "IL-17A : IL-17RA binding (Homo sapiens, UniProt Q16552, K93Q)", "measured": "> 100 nM"}
{"compound": "Cc1nonc1C(=O)N[C@H](c1nc2ccc([C@H](NC(=O)CC3CC(F)(F)C3)C3CC3)cc2[nH]1)[C@@H]1CCCC(F)(F)C1", "targetUnderTest": "IL-17A : IL-17RA binding (Homo sapiens, UniProt Q16552, K93Q)", "measured": "< 50 nM"}
{"compound": "C[C@@H](NC(=O)CCC(F)(F)F)c1ccc2[nH]c([C@@H](NC(=O)c3nn(CC4CCC4)cc3C#N)C3CCC(F)(F)CC3)nc2c1", "targetUnderTest": "IL-17A : IL-17RA binding (Homo sapiens, UniProt Q16552, K93Q)", "measured": "> 100 nM"}
{"compound": "CC(Cn1nncc1C(=O)N[C@H](c1nc2ccc([C@@H](C)NC(=O)CCC(F)(F)F)cc2[nH]1)C1CCC(F)(F)CC1)C(F)(F)F (single isomer, unassigned) [Example 72]", "targetUnderTest": "IL-17A : IL-17RA binding (Homo sapiens, UniProt Q16552, K93Q)", "measured": "> 100 nM"}
{"compound": "CC(C)(C[C@H](NC(=O)c1nonc1C1CC1)c1nc2ccc([C@H](NC(=O)CCC(F)F)C3CC3)cc2[nH]1)C(F)(F)F", "targetUnderTest": "IL-17A : IL-17RA binding (Homo sapiens, UniProt Q16552, K93Q)", "measured": "< 50 nM"}
{"compound": "C[C@@H](NC(=O)CCC(F)(F)F)c1ccc2[nH]c([C@@H](NC(=O)[C@@H]3C[C@@H]3F)C3CCC(F)(F)CC3)nc2c1", "targetUnderTest": "IL-17A : IL-17RA binding (Homo sapiens, UniProt Q16552, K93Q)", "measured": "> 100 nM"}
{"compound": "CC(OCC(NC(=O)c1nonc1C1CC1)c1nc2ccc([C@H](NC(=O)CC3CC(F)(F)C3)C3CC3)cc2[nH]1)C(F)(F)F (single isomer, unassigned)", "targetUnderTest": "IL-17A : IL-17RA binding (Homo sapiens, UniProt Q16552, K93Q)", "measured": "< 50 nM"}
{"compound": "Cc1nonc1C(=O)N[C@H](c1nc2ccc([C@H](NC(=O)CC3CC(F)(F)C3)C3CC3)cc2[nH]1)[C@@H]1C[C@@H]2[C@H](C1)C2(F)F", "targetUnderTest": "IL-17A : IL-17RA binding (Homo sapiens, UniProt Q16552, K93Q)", "measured": "< 50 nM"}
